System: Gardnerella cells
ASSAY NOTES: Turbidity reduction (OD) assay of Gardnerella suspensions
Format: cell-based
CONDITION CONTEXT: Gv_10 pH 6.0, Gv_17 pH 7.0, Gv_23 pH 7.4; aerobic, room temperature; vs buffer
MEASURED ATTRIBUTE: enzymatic activity by drop in turbidity (capacity to lyse Gardnerella cell walls)

- MOLECULE: "H4B4: natural Gardnerella prophage endolysin from strain Gv5-1 (protein, EL4_strain_Gv5-1) MSKKGIDVSEWQGDIDFNAVKASGVEFVIIRAGYGIGCKDKWFEQNYRKAKTCGLDVGAYWYSYANSGFEAAEEAQSCVNMLSGKSFEYPVYFDLEEKSQLNRGRAFCDSLITSFCSKLETYGYYAGFYTSLSVVNNLVSAHVRDRYALWIAQWNTHCSYQGSYGLWQYSSSGSVPGVAGRVDMDYAYVDYPSIIKNVGLNGCKNGGSDQATRTSSIDEVAREVINGAWGNGNERKQRLTSAGYDYASVQNKVNKLLGVKAYRKSVDELAREVIRGTWGNGNERKQRLAQAGYDYDTVQKRVNELL"
  RECORDED VALUE: "active"
- MOLECULE: "H2B2: natural Gardnerella prophage endolysin from strain Gv18-4 (protein, EL2_strain_Gv18-4) MSKRGIDVSEWQGDIDFNAVKASGVEFVIIRAGYGIGCKDKWFEQNYRKAKTCGLDVGAYWYSYANSGFEAAEEAQSCVNMLSGKSFEYPVYFDLEEKSQLNRGRAFCDSLITGFCNKLESCGYYAGFYTSLSTANNLVSAHVRNRYALWIAQWNTHCSYQGSYGLWQYSSSGSVPGVAGRVDMDYAYVDYPSIIKNVGLNGCKNGGSDQAARTSSIDEVAREVINGAWGNGNERKQRLTSAGYDYASVQNKVNELLGVKACRKSVDEIAREVIRGTWGNGSTRKQRLTQAGYDYDTVQKRVNELL"
  RECORDED VALUE: "active"
